Data provenance is patent US7265130B2.

Task for the reader: assign each of the following molecules its reported IC50.
target: human NPY Y5 receptor (Homo sapiens, UniProt Q15761); construct: expressed in transfected cells; assay: Affinity for NPY Y5 receptor ([125I] peptide YY binding, CHO cell membranes); conditions: inhibition of specific [125I] peptide YY binding, membranes of CHO cells expressing NPY Y5 receptor
One number for each entry, in nM.

Known IC50 results, listed for orientation:
CCCCc1ccc(NC(=O)C2CCC(CNS(=O)(=O)C(C)(C)C)CC2)cc1 (centres unmarked)    9.6
CC(C)(C)S(=O)(=O)NC1CCC(C(=O)Nc2cccc(C3CCOCC3)c2)CC1 (centres unmarked)    0.26
CC(C)(C)S(=O)(=O)NC1CCC(C(=O)Nc2ccc(OC3CCOC3)cc2)CC1 (centres unmarked)    2.4
COC(=O)CCCc1ccc(NC(=O)C2CCC(NS(=O)(=O)C(C)(C)C)CC2)cc1 (centres unmarked)    0.66
CC(C)(C)S(=O)(=O)NC1CCC(C(=O)Nc2ccc(C3CCOCC3)cc2)CC1 (centres unmarked)    0.27
CC(=O)c1ccc(NC(=O)C2CCC(NS(=O)(=O)C(C)(C)C)CC2)cc1 (centres unmarked)    1.4

For the 2 molecules below, give their IC50 values.
1. C[C@@H]1CN(c2ccc(NC(=O)CCCCNS(=O)(=O)C(C)(C)C)c(F)c2)C[C@H](C)O1
2. CC(C)(C)S(=O)(=O)NC1CCC(C(=O)Nc2cc(-c3ccco3)[nH]n2)CC1 (centres unmarked)

1. 1.2
2. 2.3

---

molecular target: human NPY Y5 receptor (Homo sapiens); construct: expressed in transfected cells; assay: Affinity for NPY Y5 receptor ([125I] peptide YY binding, CHO cell membranes); conditions: inhibition of specific [125I] peptide YY binding, membranes of CHO cells expressing NPY Y5 receptor
Task for the reader: assign each of the following molecules its reported pIC50.
Give bare numbers, as −log10 of the molar value.

Known pIC50 results, listed for orientation:
CC(C)(C)S(=O)(=O)NC1CCC(C(=O)Nc2cccc(OCC3CC3)c2)CC1 (stereo not shown)    9.62
CC(C)(C)S(=O)(=O)NC1CCC(C(=O)Nc2ccc(Cc3ccncc3)cc2)CC1 (stereo not shown)    8.23
CC(C)(C)S(=O)(=O)NC1CCC(C(=O)Nc2ccc(OC(F)(F)F)cc2)CC1 (stereo not shown)    10.00

Shift focus to the following entry.
For the molecule shown here, CC(C)(C)S(=O)(=O)NC1CCC(C(=O)Nc2cnc3ccccc3c2)CC1 (stereo not shown) , give the reported pIC50.
9.39

---

Target: human NPY Y5 receptor (Homo sapiens, UniProt Q15761)
Construct: expressed in transfected cells
Sequence (Q15761 1-445): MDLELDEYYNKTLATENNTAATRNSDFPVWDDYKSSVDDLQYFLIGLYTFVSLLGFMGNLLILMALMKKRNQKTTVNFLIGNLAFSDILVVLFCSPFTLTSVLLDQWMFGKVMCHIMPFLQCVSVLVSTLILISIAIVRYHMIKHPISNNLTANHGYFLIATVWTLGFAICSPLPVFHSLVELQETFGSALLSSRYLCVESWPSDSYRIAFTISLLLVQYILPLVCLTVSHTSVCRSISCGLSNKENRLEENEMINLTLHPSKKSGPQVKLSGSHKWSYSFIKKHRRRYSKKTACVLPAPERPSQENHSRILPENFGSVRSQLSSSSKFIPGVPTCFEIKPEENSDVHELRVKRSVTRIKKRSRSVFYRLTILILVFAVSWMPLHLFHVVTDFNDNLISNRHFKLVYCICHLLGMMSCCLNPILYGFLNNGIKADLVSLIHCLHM
Test: cAMP production inhibitory activity in CHO cells
Type: cell-based
Conditions: against 50 nM NPY inhibition of forskolin stimulated cAMP, CHO cells expressing human NPY Y5 receptor
Could you please mark MET for values of IC50 below 40 nM and NOT MET for values at or above it?

Below are worked cases with known answers.
CC(C)(C)S(=O)(=O)NC1CCC(C(=O)Nc2cccnc2Oc2ccc(F)cc2F)CC1 (centres unmarked)    NOT MET
CC(C)NC(=O)c1ccc(NC(=O)C2CCC(NS(=O)(=O)C(C)C)CC2)cc1 (centres unmarked)    NOT MET
CC(C)(O)c1ccc(NC(=O)C2CCC(NS(=O)(=O)C(C)(C)C)CC2)cc1 (centres unmarked)    NOT MET
CC(C)NC(=O)c1cccc(NC(=O)C2CCC(NS(=O)(=O)C(C)C)CC2)c1 (centres unmarked)    NOT MET
CC(C)S(=O)(=O)NC1CCC(C(=O)Nc2ccc(C(F)(F)F)cc2)CC1 (centres unmarked)    MET
CC(C)(C)S(=O)(=O)NC1CCC(C(=O)Nc2cccc(Oc3ccccc3)c2)CC1 (centres unmarked)    MET
CC(C)S(=O)(=O)NC1CCN(C(=O)Nc2ccc(OC3CCOCC3)cc2)CC1    MET
CC(C)(C)S(=O)(=O)NC1CCC(C(=O)Nc2cccc(S(=O)(=O)NC3CCCCC3)c2)CC1 (centres unmarked)    MET
CCCCc1ccc(NC(=O)C2CCC(NS(=O)(=O)C(C)(C)C)CC2)cc1 (centres unmarked) [Compound I-18]    MET
CC(C)(C)S(=O)(=O)NC1CCC(C(=O)Nc2ccc3c(c2)C(=O)c2ccccc2-3)CC1 (centres unmarked)    MET

Field: below-cutoff. Rule: recorded IC50 strictly less than 40 nM. Subject: Cc1cc(N2C[C@@H](C)O[C@@H](C)C2)ccc1NC(=O)C1CCC(NS(=O)(=O)C(C)(C)C)CC1 (some centres unmarked)
NOT MET

Field: below-cutoff. Rule: recorded IC50 strictly less than 40 nM. Subject: CC(C)(C)S(=O)(=O)NC1CCC(C(=O)Nc2ccc3c(c2)CCC3=NO)CC1 (centres unmarked)
MET

Field: below-cutoff. Rule: recorded IC50 strictly less than 40 nM. Subject: `CCCCc1ccc(C(=O)Nc2ccc(NS(=O)(=O)C(C)C)cc2)cc1`
NOT MET

Field: below-cutoff. Rule: recorded IC50 strictly less than 40 nM. Subject: CC(C)(C)S(=O)(=O)NC1CCC(C(=O)Nc2ccc(F)cc2F)CC1 (centres unmarked)
NOT MET

Field: below-cutoff. Rule: recorded IC50 strictly less than 40 nM. Subject: `CC(C)(C)S(=O)(=O)Nc1ccc(C(=O)Nc2ccc(N3CC=CC3)cc2)cc1`
MET

Field: below-cutoff. Rule: recorded IC50 strictly less than 40 nM. Subject: CC(C)(C)S(=O)(=O)NC1CCC(C(=O)Nc2cccc(O)c2)CC1 (centres unmarked)
NOT MET

Field: below-cutoff. Rule: recorded IC50 strictly less than 40 nM. Subject: CC(C)S(=O)(=O)NC1CCC(C(=O)Nc2ccc3c(c2)C(=O)N(C)C3=O)CC1 (centres unmarked)
NOT MET

---

target: human NPY Y5 receptor (Homo sapiens, UniProt Q15761); construct: expressed in transfected cells; assay: cAMP production inhibitory activity in CHO cells; format: cell-based; details: against 50 nM NPY inhibition of forskolin stimulated cAMP, CHO cells expressing human NPY Y5 receptor
Task for the reader: assign each of the following compounds its reported IC50.
Answers are plain numbers, in nM.

Known IC50 results, listed for orientation:
CC(C)(C)S(=O)(=O)NC1CCC(C(=O)Nc2ccc(N3CCCCC3)cc2)CC1 (stereo not shown) [Compound I-45]    27.9
CC(C)(C)S(=O)(=O)NC1CCC(C(=O)Nc2ccc(N3CCC(O)C3)cc2)CC1 (stereo not shown) [Compound I-90]    50
C[C@@H]1CN(S(=O)(=O)c2cccc(NC(=O)C3CCC(NS(=O)(=O)C(C)(C)C)CC3)c2)C[C@H](C)O1 (stereo partly shown) [Ia-55]    27

Shift focus to the following entry.
For the compound shown here, CC(C)(C)S(=O)(=O)NC1CCC(C(=O)NCCSCc2c(Cl)cccc2Cl)CC1 (stereo not shown) [Compound I-150] , give the reported IC50.
5.2

---

Task for the reader: assign each of the following compounds its reported IC50.
biological target: human NPY Y5 receptor (Homo sapiens, UniProt Q15761); construct: expressed in transfected cells; experiment: Affinity for NPY Y5 receptor ([125I] peptide YY binding, CHO cell membranes); settings: inhibition of specific [125I] peptide YY binding, membranes of CHO cells expressing NPY Y5 receptor
Give bare numbers, in nM.

Known IC50 results, listed for orientation:
CCCCc1ccc(NC(=O)c2ccc(N[S+]([O-])C(C)(C)Cl)cc2)cc1 (centres unmarked) [Compound I-92]    7
CSc1sc(C(=O)NNC(=O)C2CCC(NS(=O)(=O)C(C)(C)C)CC2)c2c1C(O)CCC2 (centres unmarked) [Compound I-153]    1.7
CC(C)(C)S(=O)(=O)NC1CCC(C(=O)Nc2ccc(-c3cnco3)cc2)CC1 (centres unmarked) [Ia-195]    1.4
CC(C)(C)S(=O)(=O)NC1CCC(C(=O)Nc2ccc(NS(=O)(=O)c3ccccc3)cc2)CC1 (centres unmarked) [Ia-64]    7.1
CC(C)(C)S(=O)(=O)NC1CCN(C(=O)Nc2cnc(-c3ccccc3)cn2)CC1 [Ia-70]    1.5

For the 2 compounds below, give their IC50 values.
1. CC(C)(C)S(=O)(=O)NC1CCC(C(=O)Nc2ccc(S(=O)(=O)N3CCCCC3)cc2)CC1 (centres unmarked) [Ia-185]
2. CC(C)(C)S(=O)(=O)NC1CCC(C(=O)Nc2ccc(NS(C)(=O)=O)cc2)CC1 (centres unmarked) [Ia-63]

1. 0.94
2. 3.9

For the compound shown here, COc1ccc(Cl)cc1NC(=O)C1CCC(NS(=O)(=O)C(C)(C)C)CC1 (centres unmarked) [Ia-35] , give the reported IC50.
1.8
